Recorded EC50, one value per entry.
# Test Target: Siglec-7 and/or Siglec-9 on fresh purified human NK cells
# Test Method Notes: flow cytometry on fresh purified human NK cells, mean of 4 donors
Write it as a number; the unit µg/mL goes unstated.

binder="mAb3 (antibody, human IgG1, V domains shown) VH: EVQLLETGPGLVKPSQSLSLTCTVTGYSITGGFAWNWIRQFPGNTLEWMGYIGYGGSTSYNPSLNSRISITRDTSKNHFFLQFNSVTTEDSATYYCARGDYLFAYWGQGTLVTVSA VL: DILMTQSPASLSASVGETVSITCRASGNIHNYLAWYLQRQGKSPQLLVYNAKTLADGVPSRFSGTGSGTQFSLKINSLQPEDFGSYYCQHFWSTPRTFGGGTKLEIK" observable=EC50 observed=0.19
binder="mAb5 (antibody, human IgG1, V domains shown) VH: EIQLQQSGPELEKPGASVKISCKASGYSFSDYNMNWVKQSNGKSLEWIGNIDPYYGATSYNQRFKGKATLTVDKSSSTAYMQLKSLTSEDSAVYYCARGDSLFAYWGHGTLVTVSA VL: DIVMTQSQEFMSTSLGDRVSVTCKASQNVGTNVAWYQQKPGQSPKALLYSASSRYSGVPDRFTGSGSGTDFTLTISNVQSEDLAEYFCQQYITYPYTFGGGTKLEIK" observable=EC50 observed=1.27

# evaluate next
Returns the measured EC50 for the input binder. Input: mAb2 (antibody, human IgG1, V domains shown) VH: EVQLQESGPGLVKPSQSLSLTCTVTGYSITGGFAWNWIRQFPGNTLEWMGYIGYGGSTSYNPSLNSRISITRDTSKNHFFLQFNSVTTEDSATYYCARGDYLFAYWGQGTLVTVSA VL: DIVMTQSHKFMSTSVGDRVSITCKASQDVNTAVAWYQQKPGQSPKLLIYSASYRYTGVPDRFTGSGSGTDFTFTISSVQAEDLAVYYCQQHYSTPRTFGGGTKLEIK 0.07
